# System: ATP;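 further: ATP exposure 15 min at 22 °C before imaging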
# assayMethodText: switch fluorescence ratio, 500 uM ATP over buffer (Cy3 cluster intensity, sum of 5 cycles each) (fold (ratio)); higher = stronger signal-on switching upon ATP binding; sequences stand for … in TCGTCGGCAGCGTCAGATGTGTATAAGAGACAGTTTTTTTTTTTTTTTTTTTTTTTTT…TC
# measurementConditions: aptamer strand: ATP DNA aptamer (quencher-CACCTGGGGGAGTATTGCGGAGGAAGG + anchor), 100 nM annealed; ATP concentration: 500 uM
readout: switch fluorescence ratio
Hey, just send me the number, nothing else.

TGTGGGCGGA :: 1
GCGGTGGATG :: 1.03
GATGTCGTTT :: 1.02

Task item: Name the recorded switch fluorescence ratio of ACCGTTTGGT , assay system ATP.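 Further: ATP exposure 15 min at 22 °C before imaging.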
Reply: 0.999

Task item: Name the recorded switch fluorescence ratio of AATGGTGGTC , assay system ATP.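 Further: ATP exposure 15 min at 22 °C before imaging.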
Reply: 0.998

Task item: Name the recorded switch fluorescence ratio of CAATCGACCT , assay system ATP.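 Further: ATP exposure 15 min at 22 °C before imaging.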
Reply: 1.27

Task item: Name the recorded switch fluorescence ratio of CCAATTGCAT , assay system ATP.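 Further: ATP exposure 15 min at 22 °C before imaging.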
Reply: 1.12

Task item: Name the recorded switch fluorescence ratio of CAAGGGGGGC , assay system ATP.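 Further: ATP exposure 15 min at 22 °C before imaging.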
Reply: 0.972

Task item: Name the recorded switch fluorescence ratio of AATCTCCATT , assay system ATP.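 Further: ATP exposure 15 min at 22 °C before imaging.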
Reply: 0.982

Task item: Name the recorded switch fluorescence ratio of TGGGAACGAT , assay system ATP.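 Further: ATP exposure 15 min at 22 °C before imaging.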
Reply: 1.01

Task item: Name the recorded switch fluorescence ratio of TGGGCCTCCA , assay system ATP.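 Further: ATP exposure 15 min at 22 °C before imaging.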
Reply: 1
